Source listed as ChEMBL document CHEMBL3988442.

Tested on: Wolbachia pipientis
protocol-notes: Anti-Wolbachia Cell-Based Screen
Type: functional
Parameters: scale not given: in the data most compounds retested in dose-response had high values
stated-conditions: 5 µM
Out of some 48,000 compounds screened, about 13,000 (27%) showed an effect of 50% or more. Some of the results follow.
Entries and their Percent Effect values follow.
Enter your answer as a number in %; do not include the unit.

Recorded results for 3 molecules are shown here.
molecule	unit-symbol	Percent Effect
CCOc1cccnc1C(=O)N1CCCN(c2nc(C)cs2)CC1	%	4.223
O=C(NC1CC1)C1CCN(Cn2nc(-c3ccccc3)oc2=O)CC1	%	10.01
CN1CC(C)(C)CN(C(=O)CCc2ccccc2)CC1=O	%	83.23

Given the entry CNC(=O)CN1CC[C@H]2CN(C(=O)c3cccn3C)C[C@H]2C1.O=C(O)C(F)(F)F , report its measured Percent Effect.
94.61

I have this molecule here, CNC(=O)[C@@H](C1CCCCC1)N1CCC[C@H]1C(=O)NCCN1CCCC1.Cl.Cl , and I need its recorded Percent Effect.
1.393

Requested field: Percent Effect. Item: Cc1cncnc1C1CCN(C(=O)CN(C)C)CC1
107.4

What Percent Effect value was documented for this molecule, CCCN1C(=O)C2(CCCCC2)NC1c1c[nH]nc1-c1cccnc1 (stereo not drawn) ?
-6.37

Value lookup for Percent Effect; key = Cc1c(CNC(=O)Nc2cccc3c2CCN3C)cnn1C
-8.63

What value of measured Percent Effect is listed for O=C(c1cccs1)N1CC[C@@H]2[C@H]1CCC(=O)N2c1ccccc1 ?
4.251
